assay: Metabolic stability in liver microsomes (NADPH); settings: rat, liver microsomes
readout: microsomal CLint at 1 µM (µL/min/mg)

* C=C1CN2[C@H](COC(=O)N3CCC(Cc4cn([C@H](C(=O)N5C[C@H](O)C[C@H]5C(=O)N[C@@H](C)c5ccc(-c6scnc6C)cc5)C(C)C)nn4)CC3)CC[C@@]2(COc2nc(N3CCC[C@@](C)(O)C3)c3cnc(-c4cc(O)cc5ccc(F)c(CC)c45)c(F)c3n2)C1 | 3.9

###

assay: in vitro; conditions: mouse, microsomes
# binarize microsomal CLint: threshold 10 µL/min/mg inclusive, high side met, low side not met

- CCc1c(F)ccc2cc(O)cc(-c3ncc4c(N5CCC[C@@](C)(O)C5)nc(OC[C@]56CCCN5[C@@H](COC(=O)N5CCC7(CC5)CC(C(=O)N[C@H](C(=O)N5C[C@H](O)C[C@H]5C(=O)N[C@@H](C)c5ccc(-c8scnc8C)cc5)C(C)(C)C)C7)CC6)nc4c3F)c12: met
- CCc1c(F)ccc2cc(O)cc(-c3ncc4c(N5CCC[C@@](C)(O)C5)nc(OCC5(CN6CCC(n7cc(-c8cn([C@H](C(=O)N9C[C@H](O)C[C@H]9C(=O)N[C@@H](C)c9ccc(-c%10scnc%10C)cc9)C(C)C)nn8)cn7)CC6)CC5)nc4c3F)c12: met
- CCc1c(F)ccc2cc(O)cc(-c3ncc4c(N5CCC[C@@](C)(O)C5)nc(OCC5(CN6CCC(COc7ccc(-c8cn([C@H](C(=O)N9C[C@H](O)C[C@H]9C(=O)N[C@@H](C)c9ccc(-c%10scnc%10C)cc9)C(C)C)nn8)cc7)CC6)CC5)nc4c3F)c12: not met
- CCc1c(F)ccc2cc(O)cc(-c3ncc4c(N5CCC[C@@](C)(O)C5)nc(OCC5(CN6CCC(c7ccc(-c8cn([C@H](C(=O)N9C[C@H](O)C[C@H]9C(=O)N[C@@H](C)c9ccc(-c%10scnc%10C)cc9)C(C)(C)C)nn8)cc7)CC6)CC5)nc4c3F)c12: met
- CCc1c(F)ccc2cc(O)cc(-c3ncc4c(N5CCC[C@@](C)(O)C5)nc(OCC5(CN6CCC(N7CCN(c8cc([C@H](C(=O)N9C[C@H](O)C[C@H]9C(=O)N[C@@H](C)c9ccc(-c%10scnc%10C)cc9)C(C)C)on8)CC7)CC6)CC5)nc4c3F)c12: met
- CCc1c(F)ccc2cc(O)cc(-c3ncc4c(N5CCC[C@@](C)(O)C5)nc(OCC5(CN6CCC7(CC6)CN(c6ccc(-c8cn([C@H](C(=O)N9C[C@H](O)C[C@H]9C(=O)N[C@@H](C)c9ccc(-c%10scnc%10C)cc9)C(C)C)nn8)cn6)C7)CC5)nc4c3F)c12: met
- CCc1c(F)ccc2cc(O)cc(-c3ncc4c(N5CCC[C@@](C)(O)C5)nc(OCC5(CN6CCC(Oc7cnc(-c8cn([C@H](C(=O)N9C[C@H](O)C[C@H]9C(=O)N[C@@H](C)c9ccc(-c%10scnc%10C)cc9)C(C)C)nn8)cn7)CC6)CC5)nc4c3F)c12: met
- CCc1c(F)ccc2cc(O)cc(-c3ncc4c(N5CCCC(C)(O)C5)nc(OC[C@]56CCCN5[C@@H](COC(=O)N5CCC7(CC5)CC(C(=O)N[C@H](C(=O)N5C[C@H](O)C[C@H]5C(=O)N[C@@H](C)c5ccc(-c8scnc8C)cc5)C(C)(C)C)C7)CC6)nc4c3F)c12 (some centres unmarked): met
- CCc1c(F)ccc2cc(O)cc(-c3ncc4c(N5CCC[C@@](C)(O)C5)nc(OCC5(CN6CCN(c7ccc(-c8cn([C@H](C(=O)N9C[C@H](O)C[C@H]9C(=O)N[C@@H](C)c9ccc(-c%10scnc%10C)cc9)C(C)C)nn8)cn7)CC6)CC5)nc4c3F)c12: met
- CCc1c(F)ccc2cc(O)cc(-c3ncc4c(N5CCC[C@@](C)(O)C5)nc(OCC5(CN6CCC(Oc7cc([C@H](C(=O)N8C[C@H](O)C[C@H]8C(=O)N[C@@H](C)c8ccc(-c9scnc9C)cc8)C(C)C)on7)CC6)CC5)nc4c3F)c12: met
- CCc1c(F)ccc2cc(O)cc(-c3ncc4c(N5CCC[C@@](C)(O)C5)nc(OCC5(CN6CCN(CC7CCN(c8cc([C@H](C(=O)N9C[C@H](O)C[C@H]9C(=O)N[C@@H](C)c9ccc(-c%10scnc%10C)cc9)C(C)C)on8)CC7)CC6)CC5)nc4c3F)c12: met
- CCc1c(F)ccc2cc(O)cc(-c3ncc4c(N5CCC[C@@](C)(O)C5)nc(OCC5(CN6CCC7(CC6)CN(c6cc([C@H](C(=O)N8C[C@H](O)C[C@H]8C(=O)N[C@@H](C)c8ccc(-c9scnc9C)cc8)C(C)C)on6)C7)CC5)nc4c3F)c12: met
- CCc1c(F)ccc2cc(O)cc(-c3ncc4c(N5CCC[C@@](C)(O)C5)nc(OCC5(CN6CCC(F)(COc7cc([C@H](C(=O)N8C[C@H](O)C[C@H]8C(=O)N[C@@H](C)c8ccc(-c9scnc9C)cc8)C(C)C)on7)CC6)CC5)nc4c3F)c12: not met

###

biological target: KRAS G12D (Homo sapiens, UniProt P01116, G12D)
Sequence (P01116 1-188 isoform P01116-2 G12D): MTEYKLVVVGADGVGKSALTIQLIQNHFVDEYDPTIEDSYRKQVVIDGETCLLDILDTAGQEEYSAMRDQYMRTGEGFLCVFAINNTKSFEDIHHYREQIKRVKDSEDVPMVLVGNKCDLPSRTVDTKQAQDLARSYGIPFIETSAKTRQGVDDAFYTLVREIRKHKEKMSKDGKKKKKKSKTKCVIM
Listing of entries alongside the reported DC50.
readout: DC50

* CCc1c(F)ccc2cc(O)cc(-c3ncc4c(N5CCC[C@@](C)(O)C5)nc(OCCN5CCC(COc6cc([C@H](C(=O)N7C[C@H](O)C[C@H]7C(=O)N[C@@H](C)c7ccc(-c8scnc8C)cc7)C(C)C)on6)CC5)nc4c3F)c12 | 40 nM
* CCc1c(F)ccc2cc(O)cc(-c3ncc4c(N5CCC[C@@](C)(O)C5)nc(OCC5(CN6CCC(n7cc(-c8cn([C@H](C(=O)N9C[C@H](O)C[C@H]9C(=O)N[C@@H](C)c9ccc(-c%10scnc%10C)cc9)C(C)C)nn8)cn7)CC6)CC5)nc4c3F)c12 | 13 nM
* CCc1c(F)ccc2cc(O)cc(-c3ncc4c(N5CCC[C@@](C)(O)C5)nc(OCC5(CN6CCC(Oc7cc([C@H](C(=O)N8C[C@H](O)C[C@H]8C(=O)N[C@@H](C)c8ccc(-c9scnc9C)cc8)C(C)C)on7)CC6)CC5)nc4c3F)c12 | 18 nM
* CCc1c(F)ccc2cc(O)cc(-c3ncc4c(N5CCC[C@@](C)(O)C5)nc(OCC5(CN6CCN(Cc7cn([C@H](C(=O)N8C[C@H](O)C[C@H]8C(=O)N[C@@H](C)c8ccc(-c9scnc9C)cc8)C(C)C)nn7)CC6)CC5)nc4c3F)c12 | 19 nM

###

test: in vitro; conditions: human, microsomes
readout: microsomal CLint (µL/min/mg)

- CCc1c(F)ccc2cc(O)cc(-c3ncc4c(N5CCC[C@@](C)(O)C5)nc(OCC5(CN6CCC(c7ccc(-c8cn([C@H](C(=O)N9C[C@H](O)C[C@H]9C(=O)N[C@@H](C)c9ccc(-c%10scnc%10C)cc9)C(C)C)nn8)cc7)CC6)CC5)nc4c3F)c12: 7.4
- C=C1CN2[C@H](COCc3ccc(-c4cn([C@H](C(=O)N5C[C@H](O)C[C@H]5C(=O)N[C@@H](C)c5ccc(-c6scnc6C)cc5)C(C)C)nn4)cc3)CC[C@@]2(COc2nc(N3CCC[C@@](C)(O)C3)c3cnc(-c4cc(O)cc5ccc(F)c(CC)c45)c(F)c3n2)C1: 46.4
- CCc1c(F)ccc2cc(O)cc(-c3ncc4c(N5CCC[C@@](C)(O)C5)nc(OCC5(CN6CCC(Oc7ccc(-c8cn([C@H](C(=O)N9C[C@H](O)C[C@H]9C(=O)N[C@@H](C)c9ccc(-c%10scnc%10C)cc9)C(C)C)nn8)cn7)CC6)CC5)nc4c3F)c12: 11.3
- CCc1c(F)ccc2cc(O)cc(-c3ncc4c(N5CCCC(C)(O)C5)nc(OC[C@]56CCCN5[C@@H](COC(=O)N5CCC7(CC5)CC(C(=O)N[C@H](C(=O)N5C[C@H](O)C[C@H]5C(=O)N[C@@H](C)c5ccc(-c8scnc8C)cc5)C(C)(C)C)C7)CC6)nc4c3F)c12 (stereo partly shown): 31
- CCc1c(F)ccc2cc(O)cc(-c3ncc4c(N5CCC[C@@](C)(O)C5)nc(OCC5(CN6CCC(Oc7cc([C@H](C(=O)N8C[C@H](O)C[C@H]8C(=O)N[C@@H](C)c8ccc(-c9scnc9C)cc8)C(C)C)on7)CC6)CC5)nc4c3F)c12: 46.5
- CCc1c(F)ccc2cc(O)cc(-c3ncc4c(N5CCC[C@@](C)(O)C5)nc(OCC5(CN6CCC(COc7ccc(-c8cn([C@H](C(=O)N9C[C@H](O)C[C@H]9C(=O)N[C@@H](C)c9ccc(-c%10scnc%10C)cc9)C(C)C)nn8)cc7)CC6)CC5)nc4c3F)c12: 9.8
- C=C1CN2[C@H](COc3ccc(-c4cn([C@H](C(=O)N5C[C@H](O)C[C@H]5C(=O)N[C@@H](C)c5ccc(-c6scnc6C)cc5)C(C)C)nn4)cn3)CC[C@@]2(COc2nc(N3CCC[C@@](C)(O)C3)c3cnc(-c4cc(O)cc5ccc(F)c(CC)c45)c(F)c3n2)C1: 49.7
